- Assay Procedure: Stopped-flow kinetic analysis of superoxide dismutation
- Assay type: biochemical
- Parameters: unit not given here
- Cond: pH 8.1
For each entry below, report its kcat pH 8.1 value.
Numbers only.

Some molecules with recorded kcat pH 8.1:
- Molecule: "[Cl-].[Cl-].[Mn+2].c1cc2nc(c1)CN[C@@H]1CCCC[C@H]1NCCN[C@@H]1CCCC[C@H]1NC2 [Compound 38]"
  kcat pH 8.1: 1.19
- Molecule: "[Cl-].[Cl][Fe]1234([Cl])[N]5CC[N]1C1CCCCC1[N]2CC[N]3C1CCCCC1[N]4CC5 (stereo not drawn) [Compound 20]"
  kcat pH 8.1: 0.93

Now for a further molecule.
Please report the recorded kcat pH 8.1 for [Cl-].[Cl-].[NH3+]CCCC[C@@H]1C[N]2[C@@H](CCCC[NH3+])C[N]3[C@@H]4CCCC[C@H]4[N]4CC[N]5CC[N]1[Mn]5243([Cl])[Cl] [Compound 12] .
5.39

---

- Assay Procedure: Stopped-flow kinetic analysis of superoxide dismutation
- Format: biochemical
- Design: unit not given here
- Cond: pH 8.1
Measured Attribute: kcat pH 8.1
Answers are plain numbers.

Some compounds with recorded kcat pH 8.1:
- Compound: "C[C@@H]1C[N]2[C@@H](C)C[N]3[C@@H]4CCCC[C@H]4[N]4C[C@H](C)[N]5CC[N]1[Mn]4352([Cl])[Cl]"
  kcat pH 8.1: 4.08
- Compound: "C=CCC1C[N]2CC[N]3CC[N]4CC[N]5CC[N]1[Mn]4352([Cl])[Cl] (stereo not drawn)"
  kcat pH 8.1: 1.63
- Compound: "NCC[C@H]1C[N]2[C@@H](CCN)C[N]3[C@@H]4CCCC[C@H]4[N]4CC[N]5CC[N]1[Mn]5243([Cl])[Cl]"
  kcat pH 8.1: 1.97

Each compound below has a recorded value; state its kcat pH 8.1.
1. C[C@@H]1C[N]2[C@@H](C)C[N]3CC[N]4C[C@H](C)[N]5[C@@H](COc6ccco6)C[N]1[Mn]3425([Cl])[Cl]
2. C[C@@H]1C[N]2[C@@H](C)C[N]3[C@@H](C)C[N]4[C@H](C)C[N]5[C@@H](C)C[N]1[Mn]4523([Cl])[Cl]
3. C[C@H]1C[N]2[C@@H](C)C[N]3[C@@H](CCCNC(=O)CC(CC(=O)O)NC(=O)CNC(=O)c4cccc(NC(=N)N)c4)C[N]4[C@H]5CCCC[C@H]5[N]5CC[N]1[Mn]3524([Cl])[Cl] (stereo partly drawn)

[2.55, 3.90, 2.87]

---

- Assay Procedure: Stopped-flow kinetic analysis of superoxide dismutation
- Assay type: biochemical
- Design: unit not given here
- Cond: pH 8.1
Output 1 (yes) for records whose kcat pH 8.1 is lower than 2, 0 (no) for records at or above 2.

- Compound: "C#CCC1C[N]2CC[N]3CC[N]4CC[N]5CC[N]1[Mn]4352([Cl])[Cl] (stereo not drawn) [Compound 4]"
  Answer Label: "1 (yes)"
- Compound: "N#C[S][Mn]1234([S]C#N)[N]5CC[N]1C1CCCCC1[N]2CC[N]3C1CCCC[C@H]1[N]4CC5 (stereo partly drawn) [Compound 22]"
  Answer Label: "0 (no)"
- Compound: "[Cl][Mn]1234([Cl])[N]5CC[N]1CC[N]2CC[N]3CC[N]4CC5 [Compound 1]"
  Answer Label: "0 (no)"
- Compound: "O=C(OC[C@H]1C[N]2[C@@H](COC(=O)c3ccccc3)C[N]3[C@@H](COC(=O)c4ccccc4)C[N]4[C@@H](COC(=O)c5ccccc5)C[N]5CC[N]1[Mn]5423([Cl])[Cl])c1ccccc1 [Compound 36]"
  Answer Label: "1 (yes)"
- Compound: "C[C@H]1C[N]2[C@@H](CCCO)C[N]3[C@@H]4CCCC[C@H]4[N]4C[C@H](CCCO)[N]5CC[N]1[Mn]5243([Cl])[Cl] [Compound 27]"
  Answer Label: "0 (no)"

Shifting focus to the compound that follows.
Quick check: does [Cl][Mn]1234([Cl])[N]5CC[N]1CC[N]2CC(Cc1ccccc1)[N]3CC[N]4CC5 (stereo not drawn) [Compound 2] have kcat pH 8.1 under 2?
0 (no)
